Study Target: T1, ZIKV (prM80E) with a C-terminal myc-myc-hexahistidine tag (Zika virus, UniProt A0A024B7W1 104-694)
T1 construct: also called ZIKV (prM80E)-mmH; ZIKV-mmH
Assay Comment: SPR, mAb captured, 25C
Readout Label: pKd
pKd here is simply -log10 of the concentration when that concentration is written in mol/L.

Use the examples below as a reference point.
For H4H25591P (antibody, V domains shown) VH: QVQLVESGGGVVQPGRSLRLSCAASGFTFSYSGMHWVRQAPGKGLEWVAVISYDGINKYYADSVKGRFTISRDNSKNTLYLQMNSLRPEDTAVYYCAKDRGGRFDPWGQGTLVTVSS VL: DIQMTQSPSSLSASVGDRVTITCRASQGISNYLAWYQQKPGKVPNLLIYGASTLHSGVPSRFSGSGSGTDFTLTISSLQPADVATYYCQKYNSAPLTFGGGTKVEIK , what is its reported pKd?
8.31

Try this binder next: H4H25587P (antibody, V domains shown) VH: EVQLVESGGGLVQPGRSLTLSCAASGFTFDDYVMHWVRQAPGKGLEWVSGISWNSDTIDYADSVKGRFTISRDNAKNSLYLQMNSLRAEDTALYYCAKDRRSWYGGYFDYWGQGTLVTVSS VL: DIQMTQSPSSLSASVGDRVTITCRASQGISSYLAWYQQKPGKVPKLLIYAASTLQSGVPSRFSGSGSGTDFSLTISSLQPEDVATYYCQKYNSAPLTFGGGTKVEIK
8.29

Try this binder next: H4H25640P (antibody, V domains shown) VH: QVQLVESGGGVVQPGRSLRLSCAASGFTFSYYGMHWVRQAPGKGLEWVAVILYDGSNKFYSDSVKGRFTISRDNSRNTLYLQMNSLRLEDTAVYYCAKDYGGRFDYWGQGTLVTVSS VL: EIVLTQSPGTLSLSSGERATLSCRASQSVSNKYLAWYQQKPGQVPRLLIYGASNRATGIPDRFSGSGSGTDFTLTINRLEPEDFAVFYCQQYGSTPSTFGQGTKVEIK
9.22

Could you now look at the following binder, please?
For H4H25630P (antibody, V domains shown) VH: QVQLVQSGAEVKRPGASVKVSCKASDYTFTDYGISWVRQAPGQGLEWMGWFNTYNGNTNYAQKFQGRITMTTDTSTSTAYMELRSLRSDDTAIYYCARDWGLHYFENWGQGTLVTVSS VL: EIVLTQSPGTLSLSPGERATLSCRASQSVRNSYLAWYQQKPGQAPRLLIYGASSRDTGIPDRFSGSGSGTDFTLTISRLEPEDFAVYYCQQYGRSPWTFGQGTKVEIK , what is its reported pKd?
9.68
